biological target: Pantothenate synthetase (Mycobacterium tuberculosis (strain ATCC 25618 / H37Rv)) (UniProt P9WIL5); experiment: Coupled enzyme confirmation of inhibitors against recombinant Mtb PanC (AID 375); details: coupled enzyme assay; at 10 µM, active compounds read high;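 note: 0% = full reaction with vehicle and 100% = no enzyme background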
Sequence (P9WIL5 whole entry, looked up): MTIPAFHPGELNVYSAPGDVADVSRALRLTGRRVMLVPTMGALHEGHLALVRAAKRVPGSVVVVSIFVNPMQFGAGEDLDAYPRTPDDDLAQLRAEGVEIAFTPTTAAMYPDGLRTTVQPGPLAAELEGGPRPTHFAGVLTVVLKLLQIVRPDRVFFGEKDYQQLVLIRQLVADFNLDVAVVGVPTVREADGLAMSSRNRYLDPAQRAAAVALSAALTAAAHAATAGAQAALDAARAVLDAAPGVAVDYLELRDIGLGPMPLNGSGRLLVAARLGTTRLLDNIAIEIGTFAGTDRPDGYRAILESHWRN
Active and inactive are the calls of the source. The rule behind the calls is not given here.
This listing pairs compounds with measured inhibition.

COMPOUND	inhibition
CCCSc1nnc(-c2ccccc2NC(=O)CC)c(=O)[nH]1	0% (inactive)
COc1ccccc1N1C(=O)CCC1(C#N)c1ccccc1 (stereo not given)	0% (inactive)
O=C(O)c1ccc(S(=O)(=O)Cc2ccccc2)cc1	0% (inactive)
CC(O)c1nc2ccccc2n1C1CCCCC1 (stereo not given)	0% (inactive)
Cc1ccccc1NC(=O)c1ccc(NC(=O)c2ccco2)cc1	0% (inactive)
CO[C@H]1C=CO[C@@]2(C)Oc3c(C)c(O)c4c(O)c(c(C=NN5CCN(C)CC5)c(O)c4c3C2=O)NC(=O)C(C)=CC=C[C@H](C)[C@H](O)[C@@H](C)[C@@H](O)[C@@H](C)[C@H](OC(C)=O)[C@@H]1C	3% (inactive)
CCS(=O)(=O)N1CCCC(C(=O)NCCc2ccc(OC)c(OC)c2)C1 (stereo not given)	4% (inactive)
CCc1ccccc1-n1c(SCC(=O)N2CCCC2)nnc1-c1ccccn1	0% (inactive)
O=c1[nH]c(SCc2cc(=O)n3ccccc3n2)nc2c1CCC2	4% (inactive)
COc1ccc(-n2ncc3c(=O)n(CC(=O)OCc4ccccc4)cnc32)cc1	0% (inactive)
